Compiled notes: published Ki values involving Histamine H3 receptor (Homo sapiens, UniProt Q9Y5N1).
value_kind: Ki (nM)

Worked cases, Ki given:
molecule: CNCc1cc(C#CCCN2CCOCC2)ccc1Oc1ccc(Cl)c(Cl)c1
value_kind: Ki
result_value: 11
//
molecule: Fc1cc(CN2CCCCC2)ccc1N1CCC(CN2CCCC2)CC1
value_kind: Ki
result_value: 4
//
molecule: Fc1ccc(C2CNCc3cc(OCCCN4CCCCC4)ncc32)cc1 (stereo not drawn)
value_kind: Ki
result_value: 2

1 = CN(C1CCCCC1)C1CCN(c2ccc(CN3CCOCC3)cc2)CC1
2 = CN(C)CCC(Oc1ccc(C#N)cc1)c1ccc(OCCCN2CCCCC2)cc1 (stereo not drawn)
3 = CCCN(CCC)CC(C)COc1ccc(-c2cn3cccc(C)c3n2)cc1 (stereo not drawn)
4 = CCCN1CCC(COc2ccc3c(c2)CN(C)CC3c2ccc(OC)cc2F)CC1 (stereo not drawn)
5 = Nc1cc(CN2CCC(F)(C(=O)N3CCC(n4c(N5CCOCC5)nc5cc(F)ccc54)CC3)CC2)ccn1
# ascending order, key=Ki Submit the labels in the order that the ranking request calls for.
2, 5, 4, 1, 3
(2: 0.2 nM, 5: 2 nM, 4: 4 nM, 1: 5.8 nM, 3: 50 nM)

A = CSc1ccc(C2CN(C)Cc3cc(OCC4CN(C5CCC5)C4)ccc32)cc1 (stereo not drawn)
B = COc1ccc(C2CNCc3cc(OCCC4CCCN4C)ncc32)cc1 (stereo not drawn)
C = CSc1ccc(C2CN(C)Cc3cc(OCC4CN(CCF)C4)ccc32)cc1 (stereo not drawn)
# ascending order, key=Ki Submit the labels in the order that the ranking request calls for.
B, A, C
(B: 3 nM, A: 5 nM, C: 30 nM)

A = O=C(CCN1CCC(Cc2c[nH]cn2)CC1)Nc1cccc(Cl)c1
B = CC(C)N1CCC(Oc2ccc(OC(CCN(C)C)c3ccc(C(F)(F)F)cc3)cc2)CC1 (stereo not drawn)
Select the item whose Ki value is smaller, choosing between A and B . In your reply, give the label of the chosen option.
A
